experiment: Absorption maximum in liquid crystal medium E43; format: physicochemical; settings: E43, 20° C., Table 4
METRIC: λmax (nm)

1) O=C1c2cccc(SC3CCCCC3)c2C(=O)c2cccc(Sc3ccccc3)c21
465
2) O=C1c2cccc(Sc3ccc(-c4ccccc4)cc3)c2C(=O)c2cccc(Sc3ccccc3)c21
460
3) CC(CCc1cc(Sc2ccccc2)c2c(c1O)C(=O)c1c(O)c(CCC(C)CC(C)(C)C)cc(Sc3ccccc3)c1C2=O)CC(C)(C)C (stereo not drawn)
590

###

Catalogue of λmax readings, one per entry.
experiment: Absorption maximum in liquid crystal medium E43; assay type: physicochemical; conditions: E43, 20° C., Table 4

// known answers, use as guide
1. CC(CCc1cc(Sc2ccccc2)c2c(c1O)C(=O)c1c([N+](=O)[O-])cc(CCC(C)CC(C)(C)C)c(O)c1C2=O)CC(C)(C)C (stereo not drawn) [Example 23(a)]
565/610
2. CC(CCc1cc(N)c2c(c1O)C(=O)c1c(O)c(CCC(C)CC(C)(C)C)cc(Sc3ccccc3)c1C2=O)CC(C)(C)C (stereo not drawn) [23(d)]
565/610

Attention now turns to another entry.
QUERY: // query λmax value for entry CC(CCc1cc(N)c2c(c1O)C(=O)c1c(Sc3ccccc3)cc(CCC(C)CC(C)(C)C)c(O)c1C2=O)CC(C)(C)C (stereo not drawn) [Example 23(c)]
RESULT: 565/610

Hello, the source for this data is patent US4446047A, in case you need it.
